- assayed system: fMet-Leu-Phe receptor (Homo sapiens)
- assay overview: small-molecule ligands of human FPR – U937-FPR cells, fMLFK-FITC, flow cytometry, primary screen (AID 362);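 as to inhibition: plate controls were buffer control wells for no effect and unlabeled fMLFF blocking peptide for full effect; higher means less cell fluorescence so more probe displaced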
- particulars: fMLFK-FITC displacement; hits give high values, concentration not given here
The whole screen tested about 4,300 compounds, of which about 60 (1%) were called active. The sample as a whole holds a higher share of actives than the screen did.
measured endpoint: inhibition

# compound, assayed system, reported measurement
measured = [
    ("CCOC(=O)c1c(NC(=O)C2C3C=CC(CC3)C2C(=O)O)sc2c1CCCC2 (centres undefined)", "fMet-Leu-Phe receptor (Homo sapiens)", "4.5% (inactive)"),
    ("CCN(C(=O)c1ccc(F)cc1)c1ccc(C(O)(C(=O)OC)C(F)(F)F)cc1 (centres undefined)", "fMet-Leu-Phe receptor (Homo sapiens)", "inactive"),
    ("COC(=O)C1C(=O)C2=C(CC1C)NC(C)=C(C(=O)OCCOC(C)C)C2c1ccc(OC)cc1 (centres undefined)", "fMet-Leu-Phe receptor (Homo sapiens)", "76.1% (active)"),
    ("COCCOC(=O)C1=C(C)NC2=C(C(=O)C(C(=O)OC)C(C)C2)C1c1ccc(N(C)C)cc1 (centres undefined)", "fMet-Leu-Phe receptor (Homo sapiens)", "64% (inactive)"),
    ("CC1(C)CC(=O)C2=C(C1)Nc1[nH]n(-c3ccccc3)c(=O)c1C2c1cccs1 (centres undefined)", "fMet-Leu-Phe receptor (Homo sapiens)", "50.9% (inactive)"),
    ("CC1(C)CC(=O)C2=C(C1)Nc1[nH]n(-c3ccccc3)c(=O)c1C2c1ccc(F)cc1 (centres undefined)", "fMet-Leu-Phe receptor (Homo sapiens)", "47.8% (inactive)"),
    ("CC(C)C(C(=O)Nc1nccs1)N1C(=O)c2ccccc2C1=O (centres undefined)", "fMet-Leu-Phe receptor (Homo sapiens)", "17.3% (inactive)"),
    ("COc1ccc(N2C(=O)C3C4C=CC(C4)C3C2=O)cc1OC (centres undefined)", "fMet-Leu-Phe receptor (Homo sapiens)", "inactive"),
    ("COC(=O)C1C(=O)C2=C(CC1C)NC(C)=C(C(=O)OCCOC(C)C)C2c1ccc(N(C)C)cc1 (centres undefined)", "fMet-Leu-Phe receptor (Homo sapiens)", "79.4% (active)"),
    ("CCC(C)(C)C1CCc2c(sc(NC(=O)C3CCCCC3C(=O)O)c2C(=O)OC)C1 (centres undefined)", "fMet-Leu-Phe receptor (Homo sapiens)", "80.5% (active)"),
]

Let me check: CCOc1cc2c(C(=O)O)cn(CC(C)C)c(=O)c2cc1OCC , system fMet-Leu-Phe receptor (Homo sapiens), measured inhibition is 70% (active)

Let me check: CCN(CC)CCOC(=O)NCC1CC(C(C)=O)C1(C)C (centres undefined) , system fMet-Leu-Phe receptor (Homo sapiens), measured inhibition is 8.3% (inactive)

Let me check: Cc1ccc(C2C3=C(CC(C)(C)CC3=O)Nc3[nH]n(-c4ccccc4)c(=O)c32)cc1 (centres undefined) , system fMet-Leu-Phe receptor (Homo sapiens), measured inhibition is 65.6% (active)

Let me check: CC(C)c1ccc(C2C3=C(CC(C)(C)CC3=O)Nc3[nH]n(-c4ccccc4)c(=O)c32)cc1 (centres undefined) , system fMet-Leu-Phe receptor (Homo sapiens), measured inhibition is 57% (inactive)
